# target-or-test-system: Mcl-1 (Homo sapiens (Human))
# protocol-summary: Fluorescence polarization anisotropy (FPA) competition assay, FITC-Bak or FITC-Bim BH3 peptide
# Assay type: binding
# applied-conditions: read-out: Ki for Inhibition of Mcl-1 by FPA assay
parameter: pKi
Would you please state pKi, meaning minus log10 of the concentration in mol/L, as a bare number?

Completed entries (count: 4):
molecule	observed-value
Cc1cc(OCCCc2c3n(c4c(-c5c(C)nn(C)c5C)c(Cl)ccc24)[C@H](C)CN(c2cccc4c2CCC4=O)C3=O)cc(C)c1Cl [Example 203]	8.22
CCN1C(=O)COc2cc(C(=O)O)cc(N3C[C@@H](C)n4c(c(CCCOc5cc(C)c(Cl)c(C)c5)c5ccc(Cl)c(-c6c(C)nn(C)c6C)c54)C3=O)c21 [Example 90]	8.06
Cc1cc(OCCCc2c3n(c4c(-c5c(C)nn(C)c5C)c(Cl)ccc24)[C@H](C)CN(c2cn(C)c4cc(-c5nnn(C)n5)ccc24)C3=O)cc(C)c1Cl [Example 370]	8.55
Cc1ccnc(Cn2c(C(=O)O)cc3cc(OC(F)(F)F)cc(N4C[C@@H](C)n5c(c(CCCOc6cc(C)c(Cl)c(C)c6)c6ccc(Cl)c(-c7c(C)nn(C)c7C)c65)C4=O)c32)c1 [Example 474]	7.77

Query: Sample Cc1cc(OCCCc2c3n(c4c(-c5c(C)nn(C)c5C)c(Cl)ccc24)[C@H](C)CN(c2cn(CCN(C)C)c4cc(C(=O)O)ccc24)C3=O)cc(C)c1Cl [Example 340] — what was its pKi?
Reply: 8.36

Query: Sample Cc1cc(CCCCc2c(C(=O)N3CCN(c4ccccc4C(=O)O)CC3)n(Cc3cccnc3)c3c(-c4c(C)nn(C)c4C)c(Cl)ccc23)cc(C)c1Cl [Example 739] — what was its pKi?
Reply: 7.14

Query: Sample COc1cnc(-c2ccc3c(c2)c(N2C[C@@H](C)n4c(c(CCCOc5cc(C)c(Cl)c(C)c5)c5ccc(Cl)c(-c6c(C)nn(C)c6C)c54)C2=O)cn3C)nc1 [Example 465] — what was its pKi?
Reply: 8.82

====

# target-or-test-system: Mcl-1 (Homo sapiens (Human), UniProt Q07820)
# Sequence (Q07820 172-327): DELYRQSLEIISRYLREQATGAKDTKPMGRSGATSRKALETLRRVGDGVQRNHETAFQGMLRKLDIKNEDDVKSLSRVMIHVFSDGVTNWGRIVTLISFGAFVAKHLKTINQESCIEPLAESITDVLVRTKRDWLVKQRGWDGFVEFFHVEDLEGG
# protocol-summary: Fluorescence polarization anisotropy (FPA) competition assay, FITC-Bak or FITC-Bim BH3 peptide
# Type: binding
# applied-conditions: read-out: Ki for Inhibition of Mcl-1 by FPA assay
parameter: Ki
# include the unit after the value

Query: Sample Cc1cc(OCCCc2c3n(c4c(-c5c(C)nn(C)c5C)c(Cl)ccc24)[C@H](C)CN(c2cn(C)c4ccc(C(=O)Nc5ccccn5)cc24)C3=O)cc(C)c1Cl [Example 280] — what was its Ki?
Reply: 1.5 nM

Query: Sample Cc1noc(-c2ccc3c(c2)c(N2C[C@@H](C)n4c(c(CCCOc5cc(C)c(Cl)c(C)c5)c5ccc(Cl)c(-c6c(C)nn(C)c6C)c54)C2=O)cn3C)n1 [Example 393] — what was its Ki?
Reply: 2.3 nM

Query: Sample Cc1cc(OCCCc2c3n(c4c(-c5c(C)nn(C)c5C)c(Cl)ccc24)CCCN(c2cc(C(=O)O)c4c(c2)nnn4C)C3=O)cc(C)c1Cl [Example 5] — what was its Ki?
Reply: 2.7 nM

====

molecules and their reported Ki
# target-or-test-system: Mcl-1 (Homo sapiens (Human), UniProt Q07820)
# protocol-summary: Fluorescence polarization anisotropy (FPA) competition assay, FITC-Bak or FITC-Bim BH3 peptide
# Assay type: binding
# applied-conditions: read-out: Ki for Inhibition of Mcl-1 by FPA assay
Write the number in nM without appending the unit.

chemical-smiles	target-or-test-system	parameter	unit-text	observed-value
Cc1cc(OCCCc2c3n(c4c(-c5c(C)nn(C)c5C)c(Cl)ccc24)[C@H](C)CN(c2cccc4cc5n(c24)CCN(CCC(C)C)C5=O)C3=O)cc(C)c1Cl	Mcl-1 (Homo sapiens (Human), UniProt Q07820)	Ki	nM	3.7
Cc1nn(C)c(C)c1-c1c(Cl)ccc2c(CCCOc3ccc(F)cc3)c3n(c12)[C@H](C)CN(c1cn(C)c2ccc(C(=O)O)cc12)C3=O	Mcl-1 (Homo sapiens (Human), UniProt Q07820)	Ki	nM	1.4
Cc1noc(-c2ccc3c(c2)c(N2C[C@@H](C)n4c(c(CCCOc5cc(C)c(Cl)c(C)c5)c5ccc(Cl)c(-c6c(C)ncnc6C)c54)C2=O)cn3C)n1	Mcl-1 (Homo sapiens (Human), UniProt Q07820)	Ki	nM	2.2
Cc1cc(OCCCc2c3n(c4c(-c5c(C)nn(C)c5C)c(Cl)ccc24)[C@H](C)CN(c2cccc4c(C(=O)O)cn(Cc5cccnc5)c24)C3=O)cc(C)c1Cl	Mcl-1 (Homo sapiens (Human), UniProt Q07820)	Ki	nM	1.3
Cc1cc(OCCCc2c3n(c4c(-c5c(C)nn(C)c5C)c(Cl)ccc24)[C@H](C)CN(c2ccc4c(C(=O)O)nn(C)c4c2)C3=O)cc(C)c1Cl	Mcl-1 (Homo sapiens (Human), UniProt Q07820)	Ki	nM	1.9

Query: Sample Cc1cc(OCCCc2c3n(c4c(-c5c(C)nn(C)c5C)c(Cl)ccc24)[C@H](C)CN(c2cn(C)c4ccc(C(=O)N5CCCC5)cc24)C3=O)cc(C)c1Cl — what was its Ki?
Reply: 12

Query: Sample Cc1ccnc(-c2ccc3c(c2)c(N2C[C@@H](C)n4c(c(CCCOc5cc(C)c(Cl)c(C)c5)c5ccc(Cl)c(-c6c(C)nn(C)c6C)c54)C2=O)cn3C)n1 — what was its Ki?
Reply: 1.4

Query: Sample COc1ccc(N2C[C@@H](C)n3c(c(CCCOc4cc(C)c(Cl)c(C)c4)c4ccc(Cl)c(-c5c(C)nn(C)c5C)c43)C2=O)c2c1cc(C(N)=O)n2Cc1ccccn1 — what was its Ki?
Reply: 1.8

Query: Sample COC(=O)c1ccc2c(c1)c(N1C[C@@H](C)n3c(c(CCCOc4cc(C)c(Cl)c(C)c4)c4ccc(Cl)c(-c5c(C)nn(C)c5C)c43)C1=O)cn2COCC[Si](C)(C)C — what was its Ki?
Reply: 45

Query: Sample Cc1cc(N2C[C@@H](C)n3c(c(CCCOc4cc(C)c(Cl)c(C)c4)c4ccc(Cl)c(-c5c(C)ncnc5C)c43)C2=O)c2c(c1)cc(C(N)=O)n2Cc1ccccn1 — what was its Ki?
Reply: 3.6

Query: Sample Cc1cc(OCCCc2c3n(c4c(-c5c(C)nn(C)c5C)c(Cl)ccc24)[C@H](C)CN(c2cn(C)c4ccc(-c5ncccn5)cc24)C3=O)cc(C)c1Cl — what was its Ki?
Reply: 2.8

Query: Sample COCCN1CCN(Cc2nc(C)c(-c3c(Cl)ccc4c(CCCOc5cc(C)c(Cl)c(C)c5)c5n(c34)[C@H](C)CN(c3cn(C)c4ccc(C(=O)O)cc34)C5=O)c(C)n2)CC1 — what was its Ki?
Reply: 1.9
